All values here come from PubChem BioAssay (NCI).

// reported TGI for each item listed
System: LOX IMVI melanoma
Test name: NCI tumour cell line growth inhibition, 48 h
Recorded metric: TGI

INSERT INTO measurements (molecule, measured_target, recorded_measurement) VALUES
  ('COc1ccc(/C(Cl)=C(\C=O)c2ccc(OC)c(OC)c2)cc1', 'LOX IMVI melanoma', '> 100 µM'),
  ('COC1(OC)CC2C(=O)N(Cc3ccccc3)C1C=C2S(=O)(=O)c1ccccc1 (stereo not drawn)', 'LOX IMVI melanoma', '28.2 µM'),
  ('COC1=CC2C(c3cc4ccccc4n3S(=O)(=O)c3ccccc3)CC1CN2C(=O)OCc1ccccc1 (stereo not drawn)', 'LOX IMVI melanoma', '57.7 µM'),
  ('NC(=O)OCCn1cc(-c2nc(-c3c[nH]c4ncccc34)cs2)c2ccccc21', 'LOX IMVI melanoma', '4.11 µM'),
  ('CCCCCCCCCCCCC/C=C/[C@@H](O)[C@H](COC1OC(CO)C(OC2OC(CO)C(O)C(OC3(C(=O)O)CC(O)C(NC(C)=O)C(C(O)C(O)CO)O3)C2O)C(O)C1O)N=[N+]=[N-] (stereo partly drawn)', 'LOX IMVI melanoma', '36.6 µM'),
  ('CC(C(=O)OCc1ccccc1)(c1ccco1)N1C(=O)OC(c2ccccc2)C1c1ccccc1 (stereo not drawn)', 'LOX IMVI melanoma', '> 100 µM'),
  ('CCC(C)C1NC(=O)C(NC(=O)c2c3[nH]c4c(C(=O)NC5C(=O)NC(C(C)CC)C(=O)N6CCCC6C(=O)N(C)CC(=O)N(C)C(C(C)C)C(=O)OC5C)ccc(C)c4oc-3c(C)c(=O)c2=O)C(C)OC(=O)C(C(C)C)N(C)C(=O)CN(C)C(=O)C2CCCN2C1=O (stereo not drawn)', 'LOX IMVI melanoma', '> 53.4 µM'),
  ('CC(=O)O/C(=C1\C[C@H]2[C@@H]3CC=C4C[C@@H](OC(C)=O)CC[C@]4(C)[C@H]3CC[C@]2(C)C1=O)C(F)(F)F', 'LOX IMVI melanoma', '5.17 µM'),
  ('C=C1C(=O)OC2CC(C)C3(O)CCC(=O)C3(C)CC12 (stereo not drawn)', 'LOX IMVI melanoma', '> 100 µM'),
  ('CCOC(=O)c1nc2ccc(C(F)(F)F)cc2[nH]c1=O', 'LOX IMVI melanoma', '> 100 µM'),
  ('Cc1nc(-[n+]2nc(-c3ccncc3)nn2-c2ccccc2)sc1C', 'LOX IMVI melanoma', '> 100 µM'),
  ('CC1C[C@]2(C)C(=NCCN)Nc3ccccc3[C@@H]2N(C)c2ccccc21 (stereo partly drawn)', 'LOX IMVI melanoma', '28.2 µM'),
  ('CC(=O)Oc1ccc2c(c1)c1c(=O)oc(C)nc1n2Cc1ccccc1', 'LOX IMVI melanoma', '> 100 µM'),
  ('COC(=O)c1c(C#N)[nH]c(-c2ccsc2)c1C(=O)OC', 'LOX IMVI melanoma', '> 100 µM'),
  ('N#CC(C(=O)C(=O)Nc1ccc(Cl)cc1)c1ccccc1 (stereo not drawn)', 'LOX IMVI melanoma', '> 100 µM'),
  ('Fc1ccc(C(=C2CCN(CCc3ccc4[nH]c(=S)[nH]c4c3)CC2)c2ccc(F)cc2)cc1', 'LOX IMVI melanoma', '39.9 µM'),
  ('COC(=O)/C=C/c1c(CC=C(C)C)ncn1C', 'LOX IMVI melanoma', '> 100 µM'),
  ('Cc1cc(C)c2c(c1)C/C(=C\c1ccccc1C(=O)O)C2=O', 'LOX IMVI melanoma', '> 100 µM'),
  ('C=C1C(=O)O[C@H]2[C@H]1CC/C(COC(=O)/C=C\C(=O)NCc1ccc(Cn3c(=O)sn(CCCC)c3=O)cc1)=C\CC[C@@]1(C)O[C@@H]21', 'LOX IMVI melanoma', '0.379 µM'),
  ('CN1CCc2c(sc3ncn(C)c(=N)c23)C1', 'LOX IMVI melanoma', '> 100 µM'),
  ('O=C1c2ccccc2-c2c1c1ccccc1c(=O)n2CCCCl', 'LOX IMVI melanoma', '35.7 µM'),
  ('N#Cc1[nH]c(=S)[nH]c1N', 'LOX IMVI melanoma', '> 100 µM'),
  ('CCn1c(=O)c2c(=O)c3c4c(oc3oc2c2ccccc21)C(=O)c1ccccc1C4=O', 'LOX IMVI melanoma', '> 100 µM');
